For each of the variants below, state its folding stability dG.
B1: 2M8U (parent)
chain: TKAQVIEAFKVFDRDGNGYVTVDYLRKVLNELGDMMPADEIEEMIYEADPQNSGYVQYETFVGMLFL

# Variants of: B1
# experiment-notes: folding stability dG (cDNA display proteolysis); higher = more stable
# setup-conditions: PBS, room temperature
Answers are plain numbers, in kcal/mol.

Some variants with recorded folding stability dG:
[
  {
    "changes": "M36T",
    "measured-quantity": "folding stability dG",
    "assay-result": 3.65
  },
  {
    "changes": "Q51F",
    "measured-quantity": "folding stability dG",
    "assay-result": 3.58
  },
  {
    "changes": "E31H",
    "measured-quantity": "folding stability dG",
    "assay-result": 3.45
  },
  {
    "changes": "D23V",
    "measured-quantity": "folding stability dG",
    "assay-result": 3.54
  },
  {
    "changes": "A3S",
    "measured-quantity": "folding stability dG",
    "assay-result": 3.46
  }
]

I'm hoping you can list folding stability dG for every variant here, please.
1. Y24L
2. V20C
3. K10Q

OUTPUT:
1. 4
2. 3.04
3. 3.16

I'm hoping you can list folding stability dG for every variant here, please.
1. R14M
2. A38D
3. A3H
4. G63C
5. K10E
6. Y24H
7. V11W
8. E31I

OUTPUT:
1. 3.69
2. 3.32
3. 3.22
4. 3.58
5. 3.02
6. 4.05
7. 3.05
8. 3.66
